- target or system: T1, human G-protein coupled receptor family C group 5 member D (GPRC5D) (human, UniProt Q9NZD1 1-345)
- T1 construct: Overexpressed on 3T3 cells in the FACS assays; also called human GPRC5D; 3T3-GPRC5D
- T1 sequence (Q9NZD1 whole entry): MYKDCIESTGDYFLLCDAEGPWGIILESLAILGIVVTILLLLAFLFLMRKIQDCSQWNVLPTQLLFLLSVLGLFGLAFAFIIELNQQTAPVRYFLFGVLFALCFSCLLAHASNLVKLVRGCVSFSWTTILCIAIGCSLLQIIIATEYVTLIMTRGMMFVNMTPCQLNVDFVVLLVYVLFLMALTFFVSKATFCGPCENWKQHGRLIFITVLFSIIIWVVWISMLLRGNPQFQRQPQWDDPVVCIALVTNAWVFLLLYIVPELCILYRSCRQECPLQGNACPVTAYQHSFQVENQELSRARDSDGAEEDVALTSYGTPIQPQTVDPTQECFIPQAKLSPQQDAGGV
- method: FACS, scFv phage clones on 3T3 cells overexpressing GPRC5D
quantity: binding result

* ET150-167 scFv (scFv, also called ET150-17 scFv) scFv: QSALTQPPSASGSPGQSVTISCTGTSTDIGGYNYVSWYQHHPSKAPKLMIYEVNKRPSGVPDRFSGSKSGNTASLTVSGLQAEDEADYYCASFAGRKTLVFGGGTKLTVLGSRGGGGSGGGGSGGGGSLEMAQVQLVQSGAEVKKPGASVKVSCRASGYTFTAYSLHWVRQAPGQGLEWMGWINPSSGGAVYAQKFQGRVTMTRDTSISTAYMELSGLRSDDTAVYYCARNVGGHADDWGQGTLVTVSS | binds
* ET150-154 scFv (scFv, also called ET150-4 scFv) scFv: QAVLTQPPSASGTPGQRVTISCSGSSSNIGSNYVYWYQQLPGTAPKLLIYRNNQRPSGVPDRFSGSKSGTSASLAISGLRSEDEADYYCAAWDDSLSGYVFGTGTKVTVLGSRGGGGSGGGGSGGGGSLEMAQVQLVQSGAEVQRPGASVRVSCKAIAYTFTDYYIHWVRQAPGQGPEWMGWINPKSGRTQYAPKFQDRVTLARETPISTASMELRGLTSDDTAVYYCARVYGYSRWSGFDLWGQGTLVTVSS | binds
* ET150-153 scFv (scFv, also called ET150-3 scFv) scFv: QSVLTQPPSVSAAPGQKVTIPCSGSRSNVGNYYVSWYQQLPGTAPKLLIYDNNKRPSGIPDRFSGSKSGTSATLGITGLQTGDEADYFCGTWDGSLSAHVFGTGTKVTVLGSRGGGGSGGGGSGGGGSLEMAQVQLVQSGSELKKPGASVRVSCTASGYTFTSYYMHWVRQAPGQGLEWMGVINPNAGSTRYAQKFQGRVTMSTDTSTSTAYMDLSSLRSEDTAVYYCARGMYRSLLFYDPWGQGTLVTVSS | binds
